target: DDB1 (UV-DDB subunit);DDB2 (UV-DDB subunit) (human;human) (UniProt Q16531+Q92466); assay: fluorescence polarisation; conditions: N at position 8 = THF abasic site
Sequence (Q16531 whole entry, chain 1 of 2): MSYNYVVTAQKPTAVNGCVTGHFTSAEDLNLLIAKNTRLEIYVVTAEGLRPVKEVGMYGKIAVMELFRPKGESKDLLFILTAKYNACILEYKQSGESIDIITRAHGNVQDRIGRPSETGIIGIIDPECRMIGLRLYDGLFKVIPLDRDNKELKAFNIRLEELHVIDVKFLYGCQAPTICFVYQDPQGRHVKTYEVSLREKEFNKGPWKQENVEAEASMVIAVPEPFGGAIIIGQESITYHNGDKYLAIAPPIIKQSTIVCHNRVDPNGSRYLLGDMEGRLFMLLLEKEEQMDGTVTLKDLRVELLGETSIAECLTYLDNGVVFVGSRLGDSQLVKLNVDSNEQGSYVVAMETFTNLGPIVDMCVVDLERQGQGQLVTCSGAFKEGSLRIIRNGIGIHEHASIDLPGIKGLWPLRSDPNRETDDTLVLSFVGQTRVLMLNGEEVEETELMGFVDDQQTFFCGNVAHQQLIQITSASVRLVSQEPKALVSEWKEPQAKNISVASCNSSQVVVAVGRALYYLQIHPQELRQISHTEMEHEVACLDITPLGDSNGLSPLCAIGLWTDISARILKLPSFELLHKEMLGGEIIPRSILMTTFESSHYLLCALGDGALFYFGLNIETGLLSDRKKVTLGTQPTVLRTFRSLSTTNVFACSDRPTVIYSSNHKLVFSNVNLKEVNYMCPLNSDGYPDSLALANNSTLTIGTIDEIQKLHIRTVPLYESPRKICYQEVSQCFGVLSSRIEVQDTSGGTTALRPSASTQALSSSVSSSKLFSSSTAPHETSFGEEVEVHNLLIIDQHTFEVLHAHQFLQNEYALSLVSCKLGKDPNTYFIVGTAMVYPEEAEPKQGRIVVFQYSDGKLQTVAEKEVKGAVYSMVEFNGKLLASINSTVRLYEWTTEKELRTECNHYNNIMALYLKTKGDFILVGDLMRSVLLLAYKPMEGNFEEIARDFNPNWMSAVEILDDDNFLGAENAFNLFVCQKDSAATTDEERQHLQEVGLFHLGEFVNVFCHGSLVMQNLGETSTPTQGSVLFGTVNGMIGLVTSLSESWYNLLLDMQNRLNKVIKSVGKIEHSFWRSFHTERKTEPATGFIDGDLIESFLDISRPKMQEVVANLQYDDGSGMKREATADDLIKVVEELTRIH
Sequence (Q92466 whole entry, chain 2 of 2): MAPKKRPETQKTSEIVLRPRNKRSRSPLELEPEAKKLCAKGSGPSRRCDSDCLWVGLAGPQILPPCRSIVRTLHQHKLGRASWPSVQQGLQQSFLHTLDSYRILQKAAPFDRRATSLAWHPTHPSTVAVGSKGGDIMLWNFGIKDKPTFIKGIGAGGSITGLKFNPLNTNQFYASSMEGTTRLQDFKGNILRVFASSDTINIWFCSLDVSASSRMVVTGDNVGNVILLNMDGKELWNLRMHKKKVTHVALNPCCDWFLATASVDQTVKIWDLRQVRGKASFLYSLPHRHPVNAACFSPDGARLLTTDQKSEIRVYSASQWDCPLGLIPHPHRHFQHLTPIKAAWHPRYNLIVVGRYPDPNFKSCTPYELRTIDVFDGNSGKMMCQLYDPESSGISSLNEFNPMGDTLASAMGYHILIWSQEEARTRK
ASSAY_METRIC: Kd (nM)
Write down the numeric answer in nM and omit the unit.

Asked: Using known records, supply Kd for AATGAATNAAGCAGG / CCTGCTTTATTCATT [Cy5-15-bp-DNA-THF]
Given back: 0.15
